// reported pKd per item
# experimental-target: CpPstS
# protocol-text: MST-binding assay of CpPstS
# Set-up: species or system Candidatus Pelagibacter sp. HTCC7211
# condition-summary: 25°C, 40 mM MES pH 7.2, 0.005% Tween-20, read-out: Kd of CpPstS for organic phosphorus compounds
Expect pKd as a plain number equal to -log10 of the molar concentration.

{"molecule": "O=C[C@H](O)[C@@H](O)[C@H](O)[C@H](O)COP(=O)(O)O [glucose-6-phosphate]", "pKd": 3.18}

API: the following record is the query input.
Q: What does the record list as pKd for O=P(O)(O)OCC(O)CO (centres unmarked) [glycerol-3-phosphate] ?
Result: 3.98
